System: ABUTH
Experiment: Post-emergence herbicidal action against ABUTH
Assay type: in vivo, Abutilon theophrasti
Conditions: application rate 80 g/ha, rated visually about 3 weeks after treatment
Procedure: [table] 2. Post-emergence herbicidal action against harmful plants and crop plant compatibility Seeds of monocotyledonous and dicotyledonous weeds and crop plants are placed in sandy loam in plastic or wood-fibre pots, covered with soil and cultivated in a greenhouse under controlled growth conditions. 2 to 3 weeks after sowing, the test plants are treated at the one-leaf stage. […]
experimental.endpoint: Herbicidal action against [%] ABUTH (%)
Supply the numeric figure in %, leaving out any unit text.

Query string: Tell us which Herbicidal action against [%] ABUTH value is on record for C=CC1(C(=O)NC2C=CC(C(=O)OC)C2)CC(c2cc(F)cc(F)c2)=NO1 (stereo not drawn) [Example I-012]
Result string: 80
